System: Streptococcus
PROTOCOL DESCRIPTION: Antimicrobial activity against Beta-hemolytic Streptococcus by broth microdilution method
Assay type: functional
MEASUREMENT KIND: MIC50 (mg/L)
Field: numeric (mg/L). Do not append units.

Note MIC50 for the compound shown: CC(=O)NC[C@H]1CN(c2ccc(N3CCOCC3)c(F)c2)C(=O)O1 1

Name the recorded MIC50 of the compound listed here: CC[C@H]1OC(=O)[C@H](C)[C@@H](O[C@H]2C[C@@](C)(OC)[C@@H](O)[C@H](C)O2)[C@H](C)[C@@H](O[C@@H]2O[C@H](C)C[C@H](N(C)C)[C@H]2O)[C@](C)(O)C[C@@H](C)C(=O)[C@H](C)[C@@H](O)[C@]1(C)O 0.25

Tell me its MIC50 given CC1(C)S[C@@H]2[C@H](NC(=O)Cc3ccccc3)C(=O)N2[C@H]1C(=O)O as the entry. 0.015

Tell us which MIC50 value is on record for C[C@H]1COc2c(N3CCN(C)CC3)c(F)cc3c(=O)c(C(=O)O)cn1c23.C[C@H]1COc2c(N3CCN(C)CC3)c(F)cc3c(=O)c(C(=O)O)cn1c23.O 0.5

* * *

Test system: Enterococcus faecalis
PROTOCOL DESCRIPTION: Antimicrobial activity against Vancomycin-nonsusceptible Enterococcus faecalis assessed as percent susceptible isolate by broth microdilution method
Type: functional
MEASUREMENT KIND: Activity (%)
# value in %; strip the unit string

Give Activity only, for O=C(O)c1cn(C2CC2)c2cc(N3CCNCC3)c(F)cc2c1=O [CIPROFLOXACIN] , using Enterococcus faecalis data. 3.7

Report measured Activity on Enterococcus faecalis; entry: CN[C@H]1C(=O)N[C@@H]2Cc3ccc(cc3)Oc3cc4cc(c3O[C@@H]3O[C@H](C(=O)O)[C@@H](O)[C@H](O)[C@H]3NC(=O)CCCCCCCCC(C)C)Oc3ccc(cc3Cl)[C@@H](O)[C@@H]3NC(=O)[C@H](NC(=O)[C@@H]4NC(=O)[C@@H](NC2=O)c2cc(cc(O)c2Cl)Oc2cc1ccc2O)c1ccc(O)c(c1)-c1c(O[C@H]2O[C@H](CO)[C@@H](O)[C@H](O)[C@@H]2O)cc(O)cc1[C@@H](C(=O)NCCCN(C)C)NC3=O [DALBAVANCIN] 27.8

Quote Enterococcus faecalis Activity for entry CC(=O)NC[C@H]1CN(c2ccc(N3CCOCC3)c(F)c2)C(=O)O1 [LINEZOLID] . 98.6

Name the value of Activity reported for CC1(C)S[C@@H]2[C@H](NC(=O)[C@H](N)c3ccccc3)C(=O)N2[C@H]1C(=O)O [AMPICILLIN] when tested on Enterococcus faecalis. 96

* * *

System: Staphylococcus aureus
PROTOCOL DESCRIPTION: Antimicrobial activity against Oxacillin-susceptible Staphylococcus aureus by broth microdilution method
Type: functional
MEASUREMENT KIND: MIC

In one line, give reported MIC of the entry CC[C@H]1OC(=O)[C@H](C)[C@@H](O[C@H]2C[C@@](C)(OC)[C@@H](O)[C@H](C)O2)[C@H](C)[C@@H](O[C@@H]2O[C@H](C)C[C@H](N(C)C)[C@H]2O)[C@](C)(O)C[C@@H](C)C(=O)[C@H](C)[C@@H](O)[C@]1(C)O . ≤ 0.25 µg/mL

Specify MIC for CCC[C@@H]1C[C@@H](C(=O)N[C@@H]([C@H]2O[C@H](SC)[C@H](O)[C@@H](O)[C@H]2O)[C@H](C)Cl)N(C)C1 and stop. ≤ 0.25 µg/mL

Give MIC for C[C@H]1COc2c(N3CCN(C)CC3)c(F)cc3c(=O)c(C(=O)O)cn1c23.C[C@H]1COc2c(N3CCN(C)CC3)c(F)cc3c(=O)c(C(=O)O)cn1c23.O ≤ 0.5 µg/mL

Please supply the value of reported MIC for the item CN(C)[C@@H]1C(O)=C(C(N)=O)C(=O)[C@@]2(O)C(O)=C3C(=O)c4c(O)cccc4[C@@](C)(O)[C@H]3C[C@@H]12 ≤ 4 µg/mL
